# System: LTB4 synthesis
# assay: Inhibition of LTB4 synthesis
# Assay type: biochemical
quantity-measured: IC50 (nM)
Give bare numbers, in nM.

Requested field: IC50. Item: CCCc1c(OCCCOc2ccc(C(C)=O)c(OC)c2CCC)ccc2c1OC(C(=O)O)CC2 (racemic) [Biomed 101] 2100
